- Tested on: coxsackievirus type B4 (CB4,JVB)
- Method: In vitro anti-picornavirus activity (MTT), CB4
- Assay type: cell-based
- Test conditions: HeLa cells, MTT method, 37° C.
Property: IC50 CB4 (µg/mL)
# number only, unit µg/mL dropped from output

Please supply the value of reported IC50 CB4 for the item CCn1c(-c2cccs2)cc(=O)c2cc(C(C)C)ccc21
1.5

We next turn to a different molecule, shown below.
Please supply the value of reported IC50 CB4 for the item CCn1c2c(c(=O)c3cc(C(C)C)ccc31)C(=NOC)c1ccccc1-2
2.3

###

- Tested on: HRV14 (1059)
- Method: Anti-rhinovirus activity (MTT), HRV14
- Assay type: cell-based, human rhinovirus
- Test conditions: HeLa (Ohio strain) cells, MTT method, 33° C.
Property: IC50 HRV 14 (µg/mL)
# number only, unit µg/mL dropped from output

Example results:
Please supply the value of reported IC50 HRV 14 for the item COc1ccc2c(c1)Cc1c-2n(C)c2ccc(CC(C)C)cc2c1=O
0.78

Please supply the value of reported IC50 HRV 14 for the item CCn1c2c(c(=O)c3cc(C(C)C)ccc31)Cc1cc(OC)c(OC)cc1-2
0.86

Please supply the value of reported IC50 HRV 14 for the item CCn1c2c(c(=O)c3c(C(C)C)c(OC)ccc31)Cc1ccccc1-2
0.49

Please supply the value of reported IC50 HRV 14 for the item CCn1c2c(c(=O)c3cc(C(C)C)ccc31)C(=NOC)c1ccccc1-2
5.5

Please supply the value of reported IC50 HRV 14 for the item CCn1c2c(c(=O)c3cc(C(C)C)ccc31)Cc1cc(OC)c(C)cc1-2
0.51

Please supply the value of reported IC50 HRV 14 for the item CCc1ccc2c(c1)Cc1c-2n(CC)c2ccc(C(C)C)cc2c1=O
0.58

Please supply the value of reported IC50 HRV 14 for the item CCn1c2c(c(=O)c3cc(C(C)C)ccc31)Cc1cc(OC)ccc1-2
0.52

Please supply the value of reported IC50 HRV 14 for the item CCn1c2c(c(=O)c3cc(CC(C)C)ccc31)Cc1cc(OC)ccc1-2 [Compound B15]
0.84

Please supply the value of reported IC50 HRV 14 for the item CCn1c2c(c(=O)c3cc(C(C)C)ccc31)Cc1ccccc1-2.Cl
0.74

Please supply the value of reported IC50 HRV 14 for the item CCc1ccc2c(c1)Cc1c-2n(C)c2ccc(C(C)C)cc2c1=O
0.40

Continuing:
Please supply the value of reported IC50 HRV 14 for the item CCn1c2c(c(=O)c3cc(CC(C)C)ccc31)Cc1cc(OC)ccc1-2 [Compound B12]
0.43
